molecular target: human α-thrombin (Homo sapiens, UniProt P00734); construct: purified human α-thrombin dissolved in thrombin assay buffer; experiment: Enzyme assay for the inhibition of thrombin (s-2238 substrate); assay type: biochemical; settings: human α-thrombin, s-2238, pH 7.4, room temperature
Structures can show the parent of a compound that is named as a salt.
ATTRIBUTE MEASURED: Thrombin k2 /ki (second order rate constant for inactivation of the enzyme)

1) CC(=O)OC1C(CCCNC(=N)N)C(=O)N1C(C)=O (centres unmarked) [XX, hydrochloride salt] | 4.2 × 10^7 m^-1 min^-1
2) CCS(=O)(=O)[C@H]1[C@H](CCCNC(=N)N)C(=O)N1C(C)=O (relative stereo) [Compound X, hydrochloride salt] | 3.0 × 10^6 m^-1 min^-1
3) COC(=O)[C@H]1[C@H](CCCNC(=N)N)C(=O)N1C(=O)Nc1ccccc1 (relative stereo) [V, hydrochloride salt] | 8.3 × 10^4 m^-1 min^-1
4) COC(=O)[C@H]1[C@H](CCCNC(=N)N)C(=O)N1S(=O)(=O)c1cccc2c(N(C)C)cccc12 (relative stereo) [III, hydrochloride salt] | 2.1 × 10^7 m^-1 min^-1
5) CC(=O)N1C(=O)[C@@H](CCCNC(=N)N)[C@@H]1C(=O)Nc1ccc(C)cc1 (relative stereo) [XVI, hydrochloride salt] | 1.3 × 10^6 m^-1 min^-1

###

molecular target: human α-thrombin (Homo sapiens, UniProt P00734); construct: purified human α-thrombin dissolved in thrombin assay buffer; assay: Enzyme assay for the inhibition of thrombin (s-2238 substrate); type: biochemical; conditions: human α-thrombin, s-2238, pH 7.4, room temperature
Structures can show the parent of a compound that is named as a salt.
ATTRIBUTE MEASURED: Thrombin k2 /ki (second order rate constant for inactivation of the enzyme)

1) CC(=O)N1C(=O)[C@@H](CCCNC(=N)N)[C@@H]1C(=O)N1CCCCC1 (relative stereo) [Compound XI, hydrochloride salt] | 4.2 × 10^5 m^-1 min^-1
2) CC(=O)N1C(=O)[C@@H](CCCNC(=N)N)[C@@H]1CCc1ccccc1 (relative stereo) [XV, hydrochloride salt] | 1.5 × 10^6 m^-1 min^-1
3) CC(=O)N1C(=O)[C@@H](CCCNC(=N)N)[C@@H]1C(=O)NCC(=O)O (relative stereo) [Compound XIX, hydrochloride salt] | 2.0 × 10^7 m^-1 min^-1
4) CC(=O)N1C(=O)C(CCCNC(=N)N)C1C(=O)N1CCC[C@H]1C(=O)O (stereo partly drawn) [XVIII, hydrochloride salt] | 4.3 × 10^6 m^-1 min^-1
5) Cc1ccc(S(=O)(=O)N2C(=O)[C@@H](CCCNC(=N)N)[C@@H]2C(=O)N2CCCCC2)cc1 (relative stereo) [XIII, hydrochloride salt] | 4.5 × 10^7 m^-1 min^-1
6) CN(C)c1cccc2c(S(=O)(=O)N3C(=O)[C@@H](CCCNC(=N)N)[C@@H]3C(=O)N3CCCCC3)cccc12 (relative stereo) [XII, hydrochloride salt] | 2.8 × 10^6 m^-1 min^-1

###

# IC50 annotations
target: UniProt:P00734
Structures can show the parent of a compound that is named as a salt.
ATTRIBUTE MEASURED: IC50 (nM)

1. Cc1ccc(S(=O)(=O)N2C(=O)[C@@H](CCCNC(=N)N)[C@@H]2C(=O)N2CCCCC2)cc1 (relative stereo) [XIII, hydrochloride salt] | 3
2. CC(=O)N1C(=O)[C@@H](CCCNC(=N)N)[C@@H]1C(=O)Nc1ccc(C)cc1 (relative stereo) [XVI, hydrochloride salt] | 25
3. CC(=O)N1C(=O)[C@@H](CCCNC(=N)N)[C@@H]1S(=O)(=O)c1ccccc1 (relative stereo) [VI, hydrochloride salt] | 3.2
4. COC(=O)[C@H]1[C@H](CCCNC(=N)N)C(=O)N1S(C)(=O)=O.Cl (relative stereo) [IV, hydrochloride salt] | 20
5. CC(=O)N1C(=O)[C@@H](CCCNC(=N)N)[C@@H]1CCc1ccccc1 (relative stereo) [XV, hydrochloride salt] | 210
6. CCS[C@H]1[C@H](CCCNC(=N)N)C(=O)N1C(C)=O (relative stereo) [VII, hydrochloride salt] | 12.5
7. CC(=O)N1C(=O)[C@@H](CCCNC(=N)N)[C@@H]1C(=O)N1CCCCC1 (relative stereo) [Compound XI, hydrochloride salt] | 90
8. CC(=O)N1C(=O)C(CCCNC(=N)N)C1C(=O)N1CCC[C@H]1C(=O)O (some centres unmarked) [XVIII, hydrochloride salt] | 49
9. CC(=O)OC1C(CCCNC(=N)N)C(=O)N1C(=O)C(C)(C)C (centres unmarked) [XXI, hydrochloride salt] | 74
10. CC(=O)OC1C(CCCNC(=N)N)C(=O)N1C(=O)c1ccccc1 (centres unmarked) [XXII, hydrochloride salt] | 35
11. CN(C)c1cccc2c(S(=O)(=O)N3CC(CCCNC(=N)N)C3=O)cccc12 (centres unmarked) [IX, hydrochloride salt] | 1000
12. CN(C)c1cccc2c(S(=O)(=O)N3C(=O)[C@@H](CCCNC(=N)N)[C@@H]3C(=O)N3CCCCC3)cccc12 (relative stereo) [XII, hydrochloride salt] | 10
13. COC(=O)[C@H]1[C@H](CCCNC(=N)N)C(=O)N1C(C)=O (relative stereo) [II, hydrochloride salt] | 2
14. CC(=O)N1CC(CCCNC(=N)N)C1=O (centres unmarked) [VIII, hydrochloride salt] | 100
15. COC(=O)[C@H]1[C@H](CCCNC(=N)N)C(=O)N1C(=O)Nc1ccccc1 (relative stereo) [V, hydrochloride salt] | 1700
16. COC(=O)[C@H]1[C@H](CCCNC(=N)N)C(=O)N1S(=O)(=O)c1cccc2c(N(C)C)cccc12 (relative stereo) [III, hydrochloride salt] | 16
17. CC(=O)N1C(=O)[C@@H](CCCNC(=N)N)[C@@H]1C(=O)NCC(=O)O (relative stereo) [Compound XIX, hydrochloride salt] | 12
18. CC(=O)N1C(=O)[C@@H](CCCNC(=N)N)[C@@H]1C(=O)O (relative stereo) [XIV, hydrochloride salt] | 390
19. CC(=O)OC1C(CCCNC(=N)N)C(=O)N1C(C)=O (centres unmarked) [XX, hydrochloride salt] | 12

###

target: bovine pancreatic trypsin (Bos taurus); construct: purified bovine pancreatic trypsin dissolved in trypsin assay buffer; assay: Enzyme assay for the inhibition of trypsin (Z-Val-Gly-Arg-pNA substrate); assay type: biochemical
Structures can show the parent of a compound that is named as a salt.
ATTRIBUTE MEASURED: IC50 (nM)

1. CC(=O)OC1C(CCCNC(=N)N)C(=O)N1C(C)=O (stereo not shown) [XX, hydrochloride salt] | 12

###

Molecular target: bovine pancreatic trypsin (Bos taurus, UniProt P00760)
Construct: purified bovine pancreatic trypsin dissolved in trypsin assay buffer
Sequence (P00760 24-246): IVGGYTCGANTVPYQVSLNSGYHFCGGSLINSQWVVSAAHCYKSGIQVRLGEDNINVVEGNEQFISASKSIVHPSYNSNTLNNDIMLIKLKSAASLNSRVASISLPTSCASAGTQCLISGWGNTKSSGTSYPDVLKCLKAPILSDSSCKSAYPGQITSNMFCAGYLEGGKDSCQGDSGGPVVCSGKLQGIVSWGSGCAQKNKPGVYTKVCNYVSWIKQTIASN
Test: Enzyme assay for the inhibition of trypsin (Z-Val-Gly-Arg-pNA substrate)
Type: biochemical
Details: 3 min incubation of drug with enzyme, room temperature, pH 8.0; read-out: Trypsin IC50
Structures can show the parent of a compound that is named as a salt.
Please note: IC50 exactly at 100 nM is 0. Only values below 100 nM get 1.

1) CC(=O)N1C(=O)[C@@H](CCCNC(=N)N)[C@@H]1C(=O)Nc1ccc(C)cc1 (relative stereo) [XVI, hydrochloride salt] | 0
2) CC(=O)N1C(=O)[C@@H](CCCNC(=N)N)[C@@H]1C(=O)O (relative stereo) [XIV, hydrochloride salt] | 1
3) CN(C)c1cccc2c(S(=O)(=O)N3C(=O)[C@@H](CCCNC(=N)N)[C@@H]3C(=O)N3CCCCC3)cccc12 (relative stereo) [XII, hydrochloride salt] | 1
4) Cc1ccc(S(=O)(=O)N2C(=O)[C@@H](CCCNC(=N)N)[C@@H]2C(=O)N2CCCCC2)cc1 (relative stereo) [XIII, hydrochloride salt] | 0
5) COC(=O)[C@H]1[C@H](CCCNC(=N)N)C(=O)N1C(=O)Nc1ccccc1 (relative stereo) [V, hydrochloride salt] | 1
6) COC(=O)[C@H]1[C@H](CCCNC(=N)N)C(=O)N1C(C)=O (relative stereo) [II, hydrochloride salt] | 1
7) CC(=O)N1C(=O)[C@@H](CCCNC(=N)N)[C@@H]1C(=O)N1CCCCC1 (relative stereo) [Compound XI, hydrochloride salt] | 1
8) CCS[C@H]1[C@H](CCCNC(=N)N)C(=O)N1C(C)=O (relative stereo) [VII, hydrochloride salt] | 1
9) CC(=O)N1C(=O)[C@@H](CCCNC(=N)N)[C@@H]1CCc1ccccc1 (relative stereo) [XV, hydrochloride salt] | 0
10) COC(=O)[C@H]1[C@H](CCCNC(=N)N)C(=O)N1S(=O)(=O)c1cccc2c(N(C)C)cccc12 (relative stereo) [III, hydrochloride salt] | 0
11) COC(=O)[C@H]1[C@H](CCCNC(=N)N)C(=O)N1S(C)(=O)=O.Cl (relative stereo) [IV, hydrochloride salt] | 1
12) CC(=O)N1C(=O)[C@@H](CCCNC(=N)N)[C@@H]1S(=O)(=O)c1ccccc1 (relative stereo) [VI, hydrochloride salt] | 0
13) COC(=O)[C@H]1[C@H](CCCNC(=N)N)C(=O)N1S(=O)(=O)c1ccc(C)cc1.Cl (relative stereo) [I, hydrochloride salt] | 1
